System: LOX IMVI melanoma
Test: NCI-60 one-dose screen, 48 h (100 = growth as untreated, 0 = no growth, -100 = all killed)
Details: 10 µM unless noted
Method: Growth inhibition of the LOX IMVI human tumor cell line is measured as a screen for anti-cancer activity. Cells are grown in 96 well plates and exposed to the test compound for 48 hours. Compounds are tested at a single concentration, which is 10^-5 M for most compounds. The reported endpoint is percent growth (GI% or GIPRCNT), where numbers from 0 - 100% represent growth inhibition, and numbers from -100% - 0 represent cell death. For example, a value of 40 represents 60% growth inhibition. […]
This is part of a sample that, as a whole, favours compounds with a hit. Of some 83,000 tested, about 20% had one in any assay. Active and inactive are the calls of the source. How the source made its calls: active means growth percent below 10; inactive means the rest.
Consider the following compounds; for each one, report its growth.

Asked: Recorded growth of `Cc1ccc(C(=O)Nc2ccc(CN3CCN(C)CC3)c(C(F)(F)F)c2)cc1C#Cc1cnc(N)c2ccccc12` , please.
Given back: -94.5% (active)

Asked: Recorded growth of CC1=C([Se]CC(OC(=O)[C@@H](CO)NC(=O)OC(C)(C)C)C(=O)NCCCCCC(=O)OCc2ccccc2)C(=O)c2ccccc2C1=O (stereo partly drawn) , please.
Given back: -76.6% (active)

Asked: Recorded growth of N#CC1=C(N)Oc2c(ccc3ccccc23)C1c1cc2ccccc2n2nnnc12 (stereo not drawn) , please.
Given back: 24.5% (inactive)

Asked: Recorded growth of `COc1cccc(C(=O)Nc2cccc(NC(=O)c3ccccn3)c2)c1` , please.
Given back: 95.2% (inactive)

Asked: Recorded growth of `CC/C(=C(/c1ccc(Cl)cc1)c1ccc(OCCN2CCCCCC2)cc1)c1ccccc1` , please.
Given back: 68.5% (inactive)

Asked: Recorded growth of C/C=C(/C)C(=O)O[C@@H]1CC(C)(C)CC2C34OC(=O)[C@@]21CC[C@@]3(C)[C@]1(C)CCC2C(C)(C)C(=O)CC[C@]2(C)C1C[C@@H]4O (stereo partly drawn) , please.
Given back: 33.5% (inactive)

Asked: Recorded growth of O=C(OCC(O)(CO)C(=O)NC12CC3CC(CC(C3)C1)C2)c1ccc(Cl)cc1 (stereo not drawn) , please.
Given back: 95.2% (inactive)

Asked: Recorded growth of `CCN(CC)CCOc1ccc(/C(=C(\C)Cc2ccc(OC)cc2)c2ccc(O)cc2)cc1` , please.
Given back: -64.9% (active)

====

tested on: HCC-2998 colon; assay: NCI-60 one-dose screen, 48 h; conditions: 10 µM unless noted
About 83,000 compounds went through this panel and 20% of them were active in at least one assay; those are over-represented in the sample as a whole. Calls of active or inactive are those of the source. Rule for the calls: active = growth percent below 10; inactive = the rest.
Give your call using only these classes: TRUE for active, FALSE for inactive

Asked: Any idea what this test logged for C=C(CNCCO)[C@@H]1CC[C@]2(CO)CC[C@]3(C)[C@H](CC[C@@H]4[C@@]5(C)CCC(NCCO)C(C)(C)[C@@H]5CC[C@]43C)[C@@H]12 (some centres undefined) ?
Given back: FALSE

Asked: Any idea what this test logged for `Cc1oc2ccc(O)c(CN3CCCCCC3)c2c1C(=O)Nc1ccc(C(F)(F)F)cc1` ?
Given back: FALSE

Asked: Any idea what this test logged for `COC(=O)c1cc(-c2ccc(OC)c(OC)c2)[nH]c1N/N=C/c1c(Cl)cccc1Cl` ?
Given back: FALSE

Asked: Any idea what this test logged for `Cc1c2cnccc2c(C)c2c1c1cc(C(=O)O)ccc1n2C` ?
Given back: TRUE

Asked: Any idea what this test logged for `CC(=O)c1ccc(Nc2nccc(-c3ccc(Cl)cc3)n2)cc1` ?
Given back: FALSE

Asked: Any idea what this test logged for `Cc1ccccc1NC(=O)c1sc2nc3c(cc2c1N)CCCC3` ?
Given back: FALSE

Asked: Any idea what this test logged for `C=CCn1c(SCC(=O)Nc2ccc(C(=O)/C=C/c3ccc(Cl)cc3)cc2)nnc1-c1ccc(Cl)c(Cl)c1` ?
Given back: FALSE

Asked: Any idea what this test logged for `CN1CCN(Cc2ccc(NC(=O)c3cncc(C#Cc4cnc(N)c5ccc(C#N)cc45)c3)cc2C(F)(F)F)CC1` ?
Given back: FALSE

Asked: Any idea what this test logged for Nc1nc(N)c2c(n1)NC(c1cccc(Nc3ccnc4cc(C(F)(F)F)ccc34)c1)CC(c1ccc(Cl)cc1)=N2 (centres undefined) ?
Given back: FALSE

====

system: UACC-62 melanoma; experiment: NCI-60 one-dose screen, 48 h (100 = growth as untreated, 0 = no growth, -100 = all killed); conditions: 10 µM unless noted
The panel holds about 83,000 compounds, 20% with a hit somewhere; the sample as a whole holds those more often.
Consider the following compounds; for each one, report its growth.
State the answer as a number, implicitly in %.

Asked: Recorded growth of COc1cc2c(c(OC)c1OC)C(=O)CC(c1cccc(C(=O)Nc3ccc(Br)cc3)c1)O2 (stereo not drawn) , please.
Given back: 40.9

Asked: Recorded growth of `CC(=O)Oc1ccccc1C(=O)N(Cc1ccc2c(Cl)cc(Cl)c(O)c2n1)c1ccccc1` , please.
Given back: 29.3

Asked: Recorded growth of CN1C(=O)N(C)C2C1NN=c1s/c(=C\c3ccccc3F)c(=O)n12 (stereo not drawn) , please.
Given back: 21

Asked: Recorded growth of `O=[N+]([O-])c1ccc(N/N=C\c2cc(Cl)ccc2O)nc1` , please.
Given back: 11.2

Asked: Recorded growth of `Clc1ccc(C2=Nn3c(nnc3-c3cc(Cl)cc(Cl)c3Cl)SC2)cc1` , please.
Given back: 31.9

Asked: Recorded growth of `N#Cc1c(-c2ccc(F)cc2)cc(-c2cccc(Cl)c2)[nH]c1=O` , please.
Given back: 40.9

Asked: Recorded growth of `CC(C)n1nc(-c2ccc3oc(N)nc3c2)c2c(N)ncnc21` , please.
Given back: -45

Asked: Recorded growth of `CC(=O)Cc1nsc(NC(=O)c2cc(-c3cc(Cl)ccc3Cl)oc2C)n1` , please.
Given back: 95

Asked: Recorded growth of `Nc1nc(=O)n([C@H]2CC=C(CO)O2)cc1F` , please.
Given back: 92.4

Asked: Recorded growth of `Cc1ccc(C(=O)Nc2ccc(CN3CCN(C)CC3)c(C(F)(F)F)c2)cc1C#Cc1cnc(N)c2ccccc12` , please.
Given back: 4.11

Asked: Recorded growth of `CO[C@H]1CC(c2ccc[nH]2)=N[C@]12O[C@@H](C)C[C@@H]1CCCCCCCc3ccc([nH]3)[C@H]12` , please.
Given back: -47.8

Asked: Recorded growth of `COc1ccc(-c2cc(-c3ccc(N(C)C)cc3)nc(NC(=O)c3cccnc3)n2)cc1` , please.
Given back: 95.1

Asked: Recorded growth of CCCCCN(CCCCC)CC(O)c1c(Cl)ccc2ccccc12 (stereo not drawn) , please.
Given back: 59.7

Asked: Recorded growth of `CCCN1C2CCC1/C(=C\c1ccc(OC)cc1)C(=O)/C2=C/c1ccc(OC)cc1` , please.
Given back: 49.7

Asked: Recorded growth of COc1cccc(C2C(C#N)=C(N)Oc3c2ccc2ccccc32)c1 (stereo not drawn) , please.
Given back: 37.6

Asked: Recorded growth of `O=C(N/N=C/c1ccccc1Cl)c1ccccc1Nc1ccnc(C(F)(F)F)c1` , please.
Given back: -32.7

Asked: Recorded growth of `Cc1cc(=O)oc2cc(Oc3nc(-c4ccccc4)cn4c(-c5ccccc5)cnc34)ccc12` , please.
Given back: 81.4

Asked: Recorded growth of `CN(C)C(=O)OCc1ccc2c(Cl)cc(Cl)c(O)c2n1` , please.
Given back: -4.4

Asked: Recorded growth of `C=CN(C(=O)N1CCN(c2cc3c(cc2F)c(=O)c(C(=O)O)cn3C2CC2)CC1)c1nc(-c2ccc(C)cc2)cs1` , please.
Given back: 29.2

Asked: Recorded growth of `COc1cc2ncnc(Nc3ccc(S(=O)(=O)Nc4cc(C)on4)cc3)c2cc1OCCCN1CCOCC1` , please.
Given back: 104

Asked: Recorded growth of `CC(C)C(=O)Nc1ncc(C(=O)NCCN(Cc2ccccc2)C(=O)c2ccc(S(=O)(=O)Nc3ccccc3)cc2)s1` , please.
Given back: 89.6

Asked: Recorded growth of `N/C(=N\c1nc2ccccc2s1)NC(=O)Nc1ccccc1` , please.
Given back: 21

Asked: Recorded growth of O=C(CN1C(=O)NC2NC(=O)NC21)N/N=C/c1cccc([N+](=O)[O-])c1 (stereo not drawn) , please.
Given back: 88.8

Asked: Recorded growth of `CC(=O)[C@H]1CC[C@]2(C)[C@@H]1CC[C@@H]1[C@@]3(C)C/C(=C/c4cccnc4)C(=O)C(C)(C)[C@@H]3CC[C@]12C` , please.
Given back: 59.9

Asked: Recorded growth of `CC(=O)O[C@H]1CC[C@@]2(C)C(=CC[C@@H]3[C@@H]2CC[C@]2(C)C(Cl)=C(c4nc5ccc(Cl)cn5c4NC(C)(C)C)C[C@@H]32)C1` , please.
Given back: 73.6

Asked: Recorded growth of `Cc1ccc(-c2nnc(SCc3nc(N)nc(Nc4ccccc4F)n3)n2-c2ccccc2)cc1` , please.
Given back: 86

Asked: Recorded growth of `Cn1ccnc1C(=O)/C=C/c1ccc(CC(=O)Nc2cc(F)c(F)c(F)c2)cc1` , please.
Given back: 43.9

Asked: Recorded growth of `Nc1ccc(N)c2c1C(=O)c1cccc([N+](=O)[O-])c1C2=O` , please.
Given back: 5.05

Asked: Recorded growth of C=C(CNCCc1ccc(O)cc1)[C@@H]1CC[C@]2(CO)CC[C@]3(C)[C@H](CC[C@@H]4[C@@]5(C)CCC(N)C(C)(C)[C@@H]5CC[C@]43C)[C@@H]12 (stereo partly drawn) , please.
Given back: -86.7

Asked: Recorded growth of CCOC(=O)C1=C(C)N(C)C(=O)N(C)C1c1ccccc1 (stereo not drawn) , please.
Given back: 86.7

Asked: Recorded growth of `Fc1ccc(/C=C/c2cc(/C=C/c3ccc(F)cc3)n(-c3cc(F)cc(F)c3)n2)cc1` , please.
Given back: 85.7

Asked: Recorded growth of `Cc1nc2cccc(NCc3ccc(C(=O)NO)cc3)c2c(=O)n1-c1ccccc1` , please.
Given back: -17.7

Asked: Recorded growth of N#CC1=C(N)Oc2c(ccc3cccnc23)C1c1ccccc1 (stereo not drawn) , please.
Given back: 47.2

Asked: Recorded growth of COc1ccc(S(=O)(=O)NC2c3ccccc3CC2O)cc1OC (stereo not drawn) , please.
Given back: 96.2

Asked: Recorded growth of `COc1cc(OC)cc(C(=O)Nc2cnc(Nc3ccc(N4CCOCC4)nc3)nc2Oc2ccc(C(F)(F)F)cc2)c1` , please.
Given back: 76.3

Asked: Recorded growth of `COc1ccc2c(c1)C(c1c[nH]c3ccccc13)(c1c[nH]c3ccccc13)CCO2` , please.
Given back: 44.9

Asked: Recorded growth of `NC(=O)[C@@H]1Cc2ccccc2CN1C(=O)c1ccc2c(c1)Cc1ccccc1-2` , please.
Given back: -36.9

Asked: Recorded growth of `COc1ccc(N2C(=O)/C(=C/C(Cl)=C/c3ccc([N+](=O)[O-])cc3)SC2=S)cc1` , please.
Given back: -25.2
